Data origin: PubChem BioAssay (NCI)

- Tested on: MALME-3M melanoma
- ASSAY SUMMARY: NCI-60 one-dose screen, 48 h (100 = growth as untreated, 0 = no growth, -100 = all killed)
- CONDITIONS: 10 µM unless noted
Compounds without any hit were thinned out: in the full panel of roughly 83,000, 20% have a hit.
Define the label as yes when growth is strictly less than 80% and as no in all remaining cases.

MOLECULE: C=CCN1C(=O)/C(=c2\sc3n(c2=O)C2C(NN=3)N(CC)C(=O)N2CC)c2ccccc21 (configuration not stated)
TARGET OF ASSAY: MALME-3M melanoma
CLASS LABEL: yes
//
MOLECULE: O=c1c2cc(Cl)ccc2oc2ccc(OCCCCCN3CCCCC3)cc12
TARGET OF ASSAY: MALME-3M melanoma
CLASS LABEL: yes
//
MOLECULE: c1coc(CNc2c3ccccc3nc3ccccc23)c1
TARGET OF ASSAY: MALME-3M melanoma
CLASS LABEL: no
//
MOLECULE: COc1ccc2c(c1)C1=NN(C(=O)CO)[C@H](c3ccc(OC(F)(F)F)cc3)[C@@H]1CC2
TARGET OF ASSAY: MALME-3M melanoma
CLASS LABEL: no
//
MOLECULE: COc1ccc(/C=C(\C#N)c2cc(OC)c(OC)c(OC)c2)cc1
TARGET OF ASSAY: MALME-3M melanoma
CLASS LABEL: yes
//
MOLECULE: CCN1CCN(Cc2ccc(NC(=O)Nc3ccc(-n4ccc5c(NC(=O)c6ccccc6)nccc54)cc3)cc2C(F)(F)F)CC1
TARGET OF ASSAY: MALME-3M melanoma
CLASS LABEL: yes

---

- Test system: SN12C renal
- ASSAY SUMMARY: NCI-60 one-dose screen, 48 h (100 = growth as untreated, 0 = no growth, -100 = all killed)
- CONDITIONS: 10 µM unless noted
This is part of a sample that, as a whole, favours compounds with a hit. Of some 83,000 tested, about 20% had one in any assay.
Examples of molecules with documented growth follow.
MEASUREMENT NAME: growth (%)

MOL: Nc1c(N)c2ccccc2c2ccccc12
READOUT UNIT: %
VALUE REPORTED: 99.5
--
MOL: CC(=O)Nc1ccc(/C=N/N2CCCCCC2)cc1
READOUT UNIT: %
VALUE REPORTED: 83.3
--
MOL: CCOC(=O)C#Cc1c(C(=O)OCC)nnn1[C@@H]1O[C@H](COC(C)=O)[C@@H](OC(C)=O)[C@H]1OC(C)=O
READOUT UNIT: %
VALUE REPORTED: 88.5
--
MOL: CC1CCN(CCCCCOc2ccc3oc4ccc(Cl)cc4c(=O)c3c2)CC1
READOUT UNIT: %
VALUE REPORTED: 70.9
--
MOL: COc1ccc(Oc2nc(Nc3ccc(N4CCOCC4)cc3)ncc2NC(=O)Nc2cccc(OC)c2)cc1
READOUT UNIT: %
VALUE REPORTED: 50.7

---

- Tested on: 786-0 renal
- ASSAY SUMMARY: NCI-60 one-dose screen, 48 h
- CONDITIONS: 10 µM unless noted
Compounds without any hit were thinned out: in the full panel of roughly 83,000, 20% have a hit. The source made the active and inactive calls. How the source made its calls: active means growth percent below 10; inactive means the rest.
Possible outcomes: 1 (active), -1 (inactive)

COMPOUND: CC(=O)NC1C(O[C@H]2C[C@H]3[C@@H]4CC=C5C[C@@H](O)CC[C@]5(C)[C@H]4CC[C@]3(C)[C@H]2[C@H](C)C(=O)CCC(C)C)OCC(O)C1O (stereo partly drawn)
CLASS LABEL: 1

COMPOUND: COc1ccc(/C=C/c2nc3ccccc3c(=O)n2-c2ccc(C#Cc3ccc(C(C)(C)C)cc3)cc2C)c(OC)c1
CLASS LABEL: -1

COMPOUND: COc1cc2c(c(OC)c1O)C(=O)C(OC)C(c1ccc(O)c(O)c1)O2 (stereo not drawn)
CLASS LABEL: -1
